Target: RORγ (Homo sapiens, UniProt P51449)
Construct: Gal4 (galactose-responsive transcription factor); expressed in transfected cells; host or cells: HEK293
Sequence (P51449 269-508 limits assumed): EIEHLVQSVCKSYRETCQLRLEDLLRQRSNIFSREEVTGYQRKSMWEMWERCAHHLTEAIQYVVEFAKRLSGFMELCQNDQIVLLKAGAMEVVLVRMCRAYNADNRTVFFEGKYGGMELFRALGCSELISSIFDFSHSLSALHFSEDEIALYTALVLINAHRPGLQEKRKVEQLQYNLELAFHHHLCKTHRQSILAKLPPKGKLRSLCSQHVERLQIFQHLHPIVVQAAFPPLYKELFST
Test: RORγ Reporter Assay (Gal4)
Format: cell-based
Details: HEK293 co-transfected with RORγ LBD-Gal4 and luciferase reporter, 24 h incubation, absolute IC50; read-out: IC50
Protocol: RORγ Reporter Assay (Gal4) The HEK293 cell line is co-transfected transiently with two plasmids, one with the RORγ ligand-binding domain fused to galactose-responsive transcription factor (Gal4), and the other with the luciferase reporter gene and Gal binding sites (UAS). This construction allows to determine the RORγ activity in a cellular system through the measurement of luminescence. A suspension of RORγ reporter cells was dispensed into plates and cultured 2 h at 37° C. and 5% CO2. […]
measure_name: pIC50
Give bare numbers, as −log10 of the molar value.

Study these solved cases before continuing.
{"compound": "NC(=O)CN1CCC(CNc2ncnc(N3CC(F)(F)C[C@@H]3c3ccc(C(F)(F)F)cn3)c2F)C(F)(F)C1 (single isomer, unassigned)", "measured_value": 7.34}
{"compound": "NC(=O)CN1CCC(CNc2ncnc(N3CCCC3c3ccc(C(F)(F)F)cc3)c2F)CC1 (stereo not drawn)", "measured_value": 7.06}
{"compound": "NC(=O)CN1CC[C@H](CNc2ncnc(N3CCOC[C@@H]3c3ccc(C(F)(F)F)cn3)c2F)[C@@H](F)C1 (single isomer, unassigned) [Example H6-13-2]", "measured_value": 7.27}
{"compound": "C[C@@H]1COC[C@H](c2cccc(C(F)(F)F)c2)N1c1ncnc(NC[C@@H]2CCN(CC(N)=O)C[C@H]2O)c1F (single isomer, unassigned) [Example H6-21-3]", "measured_value": 7.07}
{"compound": "C[C@@H]1COC[C@H](c2ccc(C(F)(F)F)cc2)N1c1ncnc(NC[C@@H]2CCN(CC(N)=O)C[C@H]2O)c1F (single isomer, unassigned) [Example H6-22-2]", "measured_value": 7.22}

Proceed to the following item.
State the recorded pIC50 for this entry: NC(=O)CN1CC[C@H](CNc2ncnc(N3CCOC[C@@H]3c3ccc(C(F)(F)F)cc3)c2F)[C@@H](F)C1 (single isomer, unassigned) [Example H6-10-1] 7.41
